system: HELA; assay: SRB colorimetric cell growth inhibition assay, HELA; details: read-out: LC50; HELA cells; cell killing; SRB, 48 hours exposure
Starred links: 1 amine or outer side, 2 acyl side, 3 side chain; linkers in the order of their positions; H or OH if unused. Positions of bridges follow the written chain, without caps; N, C: chain ends. Non-standard residues stand in square brackets, D forms with d. Residues, ends and D or L forms follow the SMILES beside them. Hexanoyl(3S-OH,4R-NH2,5-Me) = CC(C)[C@@H](N[*:1])[C@@H](O)CC(=O)[*:2]; NMeY = CN[C@@H](Cc1ccc(O)cc1)C(=O)O; NMeF = CN[C@@H](Cc1ccccc1)C(=O)O; dNMeL = CN[C@H](CC(C)C)C(=O)O; Hiv = CC(C)[C@H](O)C(=O)O; Lac = C[C@H](O)C(=O)O
# CC50 per entry
REPORTED METRIC: CC50 (nM)

1. COc1ccc(C[C@H]2C(=O)O[C@H](C)[C@H](NC(=O)[C@@H](CC(C)C)N(C)C(=O)[C@@H]3CCCN3C(=O)[C@H](C)O)C(=O)N[C@H](C(C)C)[C@@H](O)CC(=O)O[C@@H](C(C)C)C(=O)N[C@@H](CC(C)C)C(=O)N3CCC[C@H]3C(=O)N2C)cc1 [tamandarin B, Tamandarin B, reference compound] (H-[Lac]P[dNMeL]T[Hexanoyl(3S-OH,4R-NH2,5-Me)][Hiv]LP[NMeY](Me); ester 4-C) ... 120
2. CC(C)C[C@@H]1NC(=O)[C@H](C(C)C)OC(=O)C[C@H](O)[C@@H](C(C)C)NC(=O)[C@@H](NC(=O)[C@@H](CC(C)C)N(C)C(=O)[C@@H]2CCCN2C(=O)[C@H](C)O)[C@@H](C)OC(=O)[C@H](Cc2ccccc2)N(C)C(=O)[C@@H]2CCCN2C1=O [Phe^5 tamandarin B, [N-MePhe^5]-Tamandarin B] (H-[Lac]P[dNMeL]T[Hexanoyl(3S-OH,4R-NH2,5-Me)][Hiv]LP[NMeF]; ester 4-C) ... 55.5
